# Test system: HL-60(TB) leukemia
# Method: NCI tumour cell line growth inhibition, 48 h
Where a SMILES comes first, the peptide text is derived from it. [ ]: non-standard residue; d: D form. The star is where a group is joined. ξ: configuration not given here. ξF = NC(Cc1ccccc1)C(=O)O; Cbz = O=C(OCc1ccccc1)*; Aib = CC(C)(N)C(=O)O
Recorded Metric: TGI (µM)

>  <Molecule>
CCOC(=O)C(NC(C)=O)(Nc1ccc(S(N)(=O)=O)cc1)C(F)(F)F (centres undefined)

>  <Units Symbol>
µM

>  <Value Modifier>
>

>  <Recorded Result>
100

$$$$
>  <Molecule>
Cc1cc(C)nc(NS(=O)(=O)c2ccc(Nc3c4ccccc4nc4c(C(=O)NC(CO)(CO)CO)cccc34)cc2)n1

>  <Units Symbol>
µM

>  <Value Modifier>
=

>  <Recorded Result>
97.9

$$$$
>  <Molecule>
CCOC(=O)CNC(=O)C(Cc1ccccc1)NC(=O)C(C)(C)NC(=O)OCc1ccccc1 (centres undefined) (Cbz-[Aib]-[ξF]-Gly-OEt)

>  <Units Symbol>
µM

>  <Value Modifier>
>

>  <Recorded Result>
100

$$$$
>  <Molecule>
CCCCCCn1c(SC)nc(COC(=O)NC)c1COC(=O)NC

>  <Units Symbol>
µM

>  <Value Modifier>
=

>  <Recorded Result>
56

$$$$
>  <Molecule>
CCN1c2cc(Br)cc3[nH]c(=O)n(c23)CCC1C (centres undefined)

>  <Units Symbol>
µM

>  <Value Modifier>
=

>  <Recorded Result>
35.8

$$$$
>  <Molecule>
O=c1[nH]c(=O)n(C2CC(O)C(CO)O2)cc1C(F)(C(F)(F)F)C(F)(F)F (centres undefined)

>  <Units Symbol>
µM

>  <Value Modifier>
>

>  <Recorded Result>
100

$$$$
>  <Molecule>
Cn1c2c(c3ccccc31)CCN(CCCCN1CCN(c3ccccc3)CC1)C2=O

>  <Units Symbol>
µM

>  <Value Modifier>
>

>  <Recorded Result>
81.3

$$$$
>  <Molecule>
CC(=O)OCCOCNC(=S)N/N=C/c1cc([N+](=O)[O-])ccc1O

>  <Units Symbol>
µM

>  <Value Modifier>
>

>  <Recorded Result>
100

$$$$
>  <Molecule>
CC(C)(C)C1CCC2c3c([nH]c4ccccc34)C3C(=O)N(c4ccccc4[N+](=O)[O-])C(=O)C3C2C1 (centres undefined)

>  <Units Symbol>
µM

>  <Value Modifier>
=

>  <Recorded Result>
27.5

$$$$
